pIC50: −log10 of the molar value.
For reference, the following pIC50 results for UniProt P21589 were taken from various sources.

molecule | result
COCCS(=O)(=O)N[C@H]1CC[C@H](NC(=O)O[C@@H]2CCN(c3cn[nH]c(=O)c3Cl)C2)CC1 | 5.00 to 9.00
Cc1n[nH]c(=O)c(Cl)c1N1CC[C@@H](NC(=O)NC2CCCCC2)C1 | 4.00 to 5.00
O=P(O)(O)CS(=O)(=O)C[C@H]1O[C@@H](n2nnc3c(NC4CCC4)nc(Cl)nc32)[C@H](O)[C@@H]1O | ≥ 6.30
C[C@](CO)(OC[C@H]1O[C@@H](n2ncc3c(NC4CCCC4)cc(Cl)nc32)[C@H](O)[C@@H]1O)P(=O)(O)O (racemic) | ≥ 7.00
O=P(O)(O)C(CO)(CO)OC[C@H]1O[C@H](n2ncc3c(NCc4ccc(Cl)cc4)nc(Cl)nc32)[C@H](O)[C@@H]1O (racemic) | ≥ 7.00

Could you tell me which pIC50 is on file for `O=P(O)(O)[C@](COCc1nn[nH]n1)(COCC1CC1)OC[C@H]1O[C@@H](c2ccc3c(NC4CCCC4)nc(Cl)nn23)[C@H](O)[C@@H]1O` ?
≥ 9.30

For `O=C(N[C@@H]1CC[C@H]1C(F)(F)F)O[C@@H]1CCN(c2cn[nH]c(=O)c2Cl)C1` then?
5.00 to 9.00

For `C[C@@]1(c2ccc3c(NC4CCCC4)nc(Cl)nn23)O[C@H](CO[C@@](CO)(COCc2nn[nH]n2)P(=O)(O)O)[C@@H](O)[C@H]1O` then?
6.00 to 7.00

For `CC(C)C(=O)N[C@H]1CC[C@H](NC(=O)O[C@@H]2CCN(c3cn[nH]c(=O)c3Cl)C2)CC1` then?
5.00 to 9.00

For `O=C(O)CN(C[C@H]1O[C@@H](n2cnc3c(NC4CCCC4)nc(Cl)nc32)[C@H](O)[C@@H]1O)C(=O)CP(=O)(O)O` then?
> 7.00

For `Cn1cc(NC(=O)N[C@@H]2CCN(c3cn[nH]c(=O)c3Cl)C2)cn1` then?
4.00 to 5.00

For `O=P(O)(O)COC[C@H]1O[C@@H](n2nnc3c(NCc4cccc(Cl)c4)cc(Cl)nc32)[C@H](O)[C@@H]1O` then?
≥ 7.00

For `C[C@@H](c1cccc(Cl)c1)N(C)c1nc(Cl)nc2c1cnn2[C@@H]1O[C@H](COCP(=O)(O)O)[C@@H](O)[C@H]1O` then?
< 6.00

For `O=C(NCC1CCCC1)N[C@@H]1CCN(c2cn[nH]c(=O)c2Cl)C1` then?
5.00 to 9.00
